- SYSTEM TESTED: BCL6::BCOR (Homo sapiens, UniProt P41182, C67R/C84N/C8Q)
- Construct: BCL6 (amino acids 5 to 129, with the following changes to the natural protein)
- EXPERIMENT SUMMARY: BCL6::BCOR ULight TR-FRET assay
QUANTITY: IC50 (nM)

Use the examples below as a reference point.
> print(dat)
                                   compound  result.units  experimental.value
1  CNC(=O)COc1cc2cc(Nc3nc(N4CCC5(CC4)CC5)ncc3Cl)ccc2n(C)c1=O            nM                   6
2  C[C@@H]1C[C@H](C)CN(c2ncc(Cl)c(Nc3ccc4c(c3)cc(OC[S@@+](C)[O-])c(=O)n4C)n2)C1 (single isomer, unassigned)            nM                  37
3  CCn1c(=O)c(OCC(=O)NC)cc2cc(Nc3nc(N4CCC(C(=O)O)CC4)ncc3Cl)ccc21            nM                   4
4  CNC(=O)COc1cc2cc(Nc3nc(N4C[C@H](C)C[C@H](C)C4)ccc3Cl)ccc2n(C)c1=O            nM                  87
5  CNC(=O)COc1cc2cc(Nc3nc(N4CCCC[C@H]4C)ncc3Cl)ccc2n(C)c1=O            nM                   8

A = CNC(=O)COc1cc2cc(Nc3nc(N4CC5CC4CC5(F)F)ncc3Cl)ccc2n(C)c1=O (stereo not shown)
B = C[C@@H]1C[C@H](C)CN(c2ncc(Cl)c(Nc3ccc4c(c3)cc(OCP(C)(C)=O)c(=O)n4C)n2)C1
In: Which numeric IC50 is bigger, that of A or that of B ? Give the label of your selection.
Out: B
(B: 187 nM, A: 6 nM)

====

- SYSTEM TESTED: BCL6::BCOR (Homo sapiens, UniProt P41182, C67R/C84N/C8Q)
- Construct: BCL6 (amino acids 5 to 129, with the following changes to the natural protein)
- EXPERIMENT SUMMARY: BCL6::BCOR ULight TR-FRET assay
- Procedure: Biological Methods BCL6::BCOR ULight TR-FRET Assay: Biotinylated BCL6 protein corresponding to BCL6 (amino acids 5 to 129, with the following changes to the natural protein: C8Q, C67R, C84N) is expressed in E. coli with a carboxy-terminal Avi tag (amino acid sequence […]). […] After 240 minutes incubation time the TR-FRET signal is measured in a PerkinElmer Envision HTS Multilabel Reader using the TR-FRET LANCE Ultra specs of PerkinElmer. […]
QUANTITY: IC50 (nM)

> print(dat)
                                   compound  quantity  experimental.value
1  CNC(=O)COc1cc2cc(Nc3nc(N4CCC(CN5CCOCC5)CC4)ncc3Cl)ccc2n(C)c1=O [Compound I-44]      IC50                   9
2  CNC(=O)COc1cc2cc(Nc3nc(N4CCCCC4)ncc3Cl)ccc2n(C)c1=O [Compound I-19]      IC50                   6
3  CNC(=O)COc1cc2cc(Nc3nc(N4CCCC(CCCCN5CCCC5)C4)ncc3Cl)ccc2n(C)c1=O (stereo not shown) [Compound I-123]      IC50                   7
4  CNC(=O)COc1cc2cc(Nc3nc(N4CCC(N5C[C@H]6CC[C@@H](C5)O6)CC4)ncc3Cl)ccc2n(C)c1=O [Compound I-57]      IC50                   6
5  CNC(=O)COc1cc2cc(Nc3nc(N4CC5CCCC5C4)ncc3Cl)ccc2n(C)c1=O (stereo not shown) [Compound I-72]      IC50                   9
6  C#CC1CCN(c2ncc(Cl)c(Nc3ccc4c(c3)cc(OCC(=O)O)c(=O)n4C)n2)CC1 [Compound I-113]      IC50                   7
7  CNC(=O)COc1cc2cc(Nc3nc(N4CCN(CCC(=O)O)CC4)ncc3Cl)ccc2n(C)c1=O [Compound I-91]      IC50                   7
